Conditions: buffer; pH 7.4; 200.0 µM
Assign Y to entries whose solubility kinetic meets or exceeds 20 µg/mL; assign N to the rest.

The examples below pair each entry with its known result.
MOLECULE	CLASS ASSIGNMENT
N#Cc1nc(-c2cccc(Cl)c2)oc1N1CCC(C(N)=O)CC1	N
CCCOc1ccc(-c2nc[nH]c2[N+](=O)[O-])cc1	N

Is reported solubility kinetic greater than or equal to 20 µg/mL here: O=[N+]([O-])c1ccc(CNc2cccc(F)c2)s1 N

Is reported solubility kinetic greater than or equal to 20 µg/mL here: O=C(c1cccc([N+](=O)[O-])c1)N1CCN(Cc2ccccc2)CC1 Y

Is reported solubility kinetic greater than or equal to 20 µg/mL here: Cc1ccc(N(C)S(=O)(=O)c2cccc(C(=O)OCC(=O)c3c(N)n(C)c(=O)n(C)c3=O)c2)cc1 N

###

Record form. Attribute: solubility kinetic. Fill in for each entry.
Settings: buffer; pH 7.4; 200.0 µM

MOLECULE	solubility kinetic
COc1ccc(S(=O)(=O)NCc2ccc(F)cc2)cc1OC	> 48.8 µg/mL
Cc1cc2c(cc1S(=O)(=O)N(C)c1ccccc1)n(C)c(=O)n2C	> 51.8 µg/mL

Okay, here is my list. What is solubility kinetic for each of these?
1. CCOC(=O)C1CCCN(CCC(=O)Nc2cc(C)cc(C)c2)C1 (stereo unspecified)
2. Cc1nc(-c2ccccn2)nc(N2CCOCC2)c1Cl
3. O=C(Cn1cccc1C(=O)c1ccccc1)NCc1cccc(Cl)c1
4. CS(=O)(=O)Nc1ccc(Oc2ncccn2)cc1
5. COc1ccccc1OCC(=O)Nc1nc(C)c(C)s1

["> 49.9 µg/mL", "> 43.6 µg/mL", "< 0.4 µg/mL", "> 39.8 µg/mL", "> 43.9 µg/mL"]

Okay, here is my list. What is solubility kinetic for each of these?
1. c1ccc(C2CN3CCC2CC3)cc1 (stereo unspecified)
2. CCCN(CC(=O)Nc1ccccc1OC)C(=O)c1ccncc1
3. Cn1ncc(Cl)c1C(=O)N1CCN(c2ccccc2)CC1
4. Cc1ccnc(Nc2nc(-c3ccc(O)cc3)cs2)c1
5. O=[N+]([O-])c1ccc(Cl)c(C[n+]2cccc3ccccc32)c1.[Br-]
6. Cc1cc(C(C)(C)C)oc1C(=O)OCC(=O)NC1CCCCC1
7. COc1ccc(CCNC(=O)COc2ccc(C)nc2[N+](=O)[O-])cc1

1. > 28.1 µg/mL
2. > 49.1 µg/mL
3. > 45.7 µg/mL
4. 3.9 µg/mL
5. 56.9 µg/mL
6. 1.1 µg/mL
7. > 51.8 µg/mL

Okay, here is my list. What is solubility kinetic for each of these?
1. O=C(NC(=O)c1ccccc1)OCCN1C(=O)c2ccccc2C1=O
2. C[n+]1cccc(C(=O)Nc2ccccc2)c1.[Cl-]

> 50.7 µg/mL
30 µg/mL

###

Conditions: buffer; pH 7.4; 200.0 µM
ASSAY ENDPOINT: solubility kinetic

Use these answered entries as a reference point.
MOLECULE	solubility kinetic
CCOC(=O)C1CCCN(/C=C2\SC(=S)N(CC)C2=O)C1 (stereo not drawn)	39.4 µg/mL
Cc1ccc(CNC(=O)COC(=O)C2CC2)cc1	> 37.1 µg/mL

Continue with the molecule presented below.
Give the reported solubility kinetic for this molecule. O=c1[nH]oc2cc(Cl)ccc12 > 25.4 µg/mL

These entries and their values trace back to PubChem BioAssay AID1996.
